# System: LOC_OS01G63280-cb003
# MEASUREMENT_NOTES: thermal shift delta Tm vs DMSO control; higher = stronger stabilization (binding);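 also: purified Escherichia coli-expressed rice kinase domain construct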
# EXPERIMENTAL_SETUP: 12.5 µM; protein concentration 2 µM
READOUT_LABEL: thermal shift delta Tm (°C)
Report the value in °C with no unit label.

### Prompt So what does the record say about thermal shift delta Tm for CCOc1cc2ncc(C#N)c(Nc3ccc(F)c(Cl)c3)c2cc1NC(=O)/C=C/CN(C)C [Pelitinib (EKB-569)] ?
### Response -0.05

---

# Tested on: LOC_OS01G10900-cb004
# MEASUREMENT_NOTES: thermal shift delta Tm vs DMSO control; higher = stronger stabilization (binding)
# EXPERIMENTAL_SETUP: 12.5 µM; protein concentration 2 µM
READOUT_LABEL: thermal shift delta Tm (°C)
Report the value in °C with no unit label.

### Prompt So what does the record say about thermal shift delta Tm for CC(C)S(=O)(=O)c1ccc2nccc(Nc3ccc4scnc4c3)c2c1 ?
### Response 0.44

### Prompt Now consider C#Cc1cccc(Nc2ncnc3cc(OCCOC)c(OCCOC)cc23)c1 .
### Response 0.59

### Prompt Now consider COc1cc2ncnc(Oc3cccc(NC(=O)Nc4cc(C(C)(C)C(F)(F)F)on4)c3)c2cc1OC .
### Response 0.12

### Prompt Now consider Cc1cc(Nc2ncnc3ccc(-c4ccc(CNCCS(C)(=O)=O)o4)cc23)ccc1Oc1ccn2ncnc2c1 .
### Response 3.1

### Prompt Now consider CN1CCN(S(=O)(=O)c2ccc(-c3cnc(N)c(C(=O)Nc4cccnc4)n3)cc2)CC1 .
### Response 0.3

### Prompt Now consider C[C@@H]1CN(C(=O)c2ccc(NC(=O)c3cc(O[C@H](C)c4c(Cl)ccc(F)c4Cl)c(N)nn3)cc2)C[C@H](C)N1 .
### Response 2.67

### Prompt Now consider N#C/C(=C(/N)Sc1ccc(N)cc1)c1ccccc1C(F)(F)F .
### Response 0.32

### Prompt Now consider COc1cc(N2CCC(N)CC2)ccc1Nc1ncc(Cl)c(-c2c[nH]c3ccccc23)n1 .
### Response 2.95

---

# Tested on: LOC_OS01G57100-cb003
# MEASUREMENT_NOTES: thermal shift delta Tm vs DMSO control; higher = stronger stabilization (binding)
# EXPERIMENTAL_SETUP: 12.5 µM; protein concentration 2 µM
Structures can show the parent of a compound that is named as a salt.
READOUT_LABEL: thermal shift delta Tm (°C)
Report the value in °C with no unit label.

### Prompt So what does the record say about thermal shift delta Tm for c1cncc(CN2CCC(n3ncc4c(N5CCOCC5)nc(-c5ccc6[nH]ccc6c5)nc43)CC2)c1 ?
### Response 2.55

### Prompt Now consider CC(C)c1c2cc(-c3ccnc(NC4CCC(NC5CCOCC5)CC4)n3)ccc2nn1C (stereo unspecified) .
### Response 0.61

### Prompt Now consider CC1(C)CNc2cc(NC(=O)c3cccnc3NCc3ccncc3)ccc21 [Motesanib Diphosphate (AMG-706)] .
### Response 1.3

### Prompt Now consider CC(C)N(CCC(=O)c1ccc2ccccc2c1)Cc1ccccc1 .
### Response 1.6

### Prompt Now consider Cc1ccc(C(=O)Nc2cccc(C(F)(F)F)c2)cc1Nc1nc(-c2cccnc2)nc2c1cnn2C .
### Response 2.35

### Prompt Now consider O=C(O)CCC(=O)Nc1ccc(Br)cn1 .
### Response 3.66

### Prompt Now consider C#Cc1cccc(Nc2ncnc3cc(OC)c(OCCCCCCC(=O)NO)cc23)c1 .
### Response 0.24

### Prompt Now consider Cc1[nH]c(/C=C2\C(=O)Nc3ccc(S(=O)(=O)N(C)c4cccc(Cl)c4)cc32)c(C)c1C(=O)N1CCN(C)CC1 .
### Response 1.03

### Prompt Now consider CNc1nc(-c2ccc3c(N)n[nH]c3c2)cc(N2C[C@@H](C(=O)NC3CCCCC3)CC[C@H]2C)n1 .
### Response 2.04

### Prompt Now consider COc1cc2ccc(=O)oc2cc1O .
### Response 0.91

### Prompt Now consider COc1cc2ncnc(Nc3ccc(O)c(Br)c3)c2cc1OC .
### Response 0.74

### Prompt Now consider COc1cc(N2CCC(N(C)C)CC2)ccc1Nc1ncc(Cl)c(Nc2ccccc2P(C)(C)=O)n1 .
### Response 4.55

### Prompt Now consider Cc1cc(NC(=O)c2cccc(NC(=O)/C=C/CN(C)C)c2)ccc1Nc1nccc(-c2cccnc2)n1 .
### Response 1.86

### Prompt Now consider C=CC(=O)Nc1cccc(Sc2nc(Nc3ccc(N4CCN(C)CC4)cc3)ncc2Cl)c1 .
### Response -1.98

### Prompt Now consider O=C(O)c1ccc(Nc2ncc3c(n2)-c2ccc(Cl)cc2C(c2c(F)cccc2F)=NC3)cc1 .
### Response 0.51

### Prompt Now consider COc1ccccc1-c1cc(Nc2cccc(CS(N)(=O)=O)c2)ncn1 .
### Response 2.72

### Prompt Now consider N#Cc1ccc(-c2c(-c3ncn[nH]3)sc(N3CCOCC3)c2C#N)c(F)c1 .
### Response 0.86

### Prompt Now consider CCCCCCCCCCCCCCCCn1cc[n+](Cc2ccccc2)c1C .
### Response -6.09

### Prompt Now consider O=C(O)c1ccc2c(c1)nc(Nc1cccc(Cl)c1)c1ccncc12 .
### Response 2.46

### Prompt Now consider COc1cc2c3cc1Oc1c(OC)c(OC)cc4c1[C@@H](Cc1ccc(O)c(c1)Oc1ccc(cc1)C[C@@H]3N(C)CC2)N(C)CC4 [Berbamine (dihydrochloride)] .
### Response 1.3

### Prompt Now consider CCOc1cc(N2CCC(O)CC2)ccc1Nc1ncc2c(n1)N(C)c1ccccc1C(=O)N2C .
### Response 1.56

### Prompt Now consider C[C@@H]1COC(Nc2ccc3ncnc(Nc4ccc(OCc5nccs5)c(Cl)c4)c3c2)=N1 .
### Response 1.92

### Prompt Now consider CN1CCN(c2ccc3nc(-c4c(N)c5c(F)cccc5[nH]c4=O)[nH]c3c2)CC1 [Dovitinib (TKI258) Lactate] .
### Response 1.26

### Prompt Now consider CCOC(=O)c1cnc2ccc(-c3cncc(NS(=O)(=O)c4ccccc4)c3)cn12 .
### Response 2.2

### Prompt Now consider C=CC(=O)Nc1cc(Nc2nccc(-c3c[nH]c4ccccc34)n2)c(OC)cc1N(C)CCN(C)C .
### Response 1.63

---

# Tested on: LOC_OS02G17970-cb001
# MEASUREMENT_NOTES: thermal shift delta Tm vs DMSO control; higher = stronger stabilization (binding)
# EXPERIMENTAL_SETUP: 12.5 µM; protein concentration 2 µM
The reader will find reported thermal shift delta Tm values listed item by item below.
Phrase the answer as number then unit, nothing more needed.

### Prompt So what does the record say about thermal shift delta Tm for COc1cc2nccc(Oc3ccc(NC(=O)C4(C(=O)Nc5ccc(F)cc5)CC4)cc3)c2cc1OC [Cabozantinib malate (XL184)] ?
### Response 0.98 °C

### Prompt Now consider CCn1c(=O)c(-c2ccc(Cl)cc2Cl)cc2cnc(Nc3ccc(N4CCNCC4)c(F)c3)nc21 .
### Response 1.08 °C

### Prompt Now consider CCCCCCCCCCCCCCCCn1cc[n+](Cc2ccccc2)c1C .
### Response -2.91 °C

### Prompt Now consider Cc1[nH]c(/C=C2\C(=O)Nc3ccc(S(=O)(=O)N(C)c4cccc(Cl)c4)cc32)c(C)c1C(=O)N1CCN(C)CC1 .
### Response -0.27 °C

### Prompt Now consider Cn1sc(=O)n(Cc2ccccc2)c1=O .
### Response 1.81 °C

### Prompt Now consider CNC(=O)c1cccc(-c2ccc3c(N4CCOC[C@@H]4C)nc(N4CCOC[C@@H]4C)nc3n2)c1 [Vistusertib (AZD2014)] .
### Response -0.08 °C

### Prompt Now consider Cc1c(NC(=O)OC[C@@H]2COCCN2)cn2ncnc(Nc3ccc4c(cnn4Cc4cccc(F)c4)c3)c12 .
### Response 0.42 °C

### Prompt Now consider N#Cc1cnc(Nc2cc(NC[C@H]3CNCCO3)c(C(F)(F)F)cn2)cn1 .
### Response 0.44 °C

---

# System: LOC_OS01G52050-cb004
# Sequence (as listed by the source): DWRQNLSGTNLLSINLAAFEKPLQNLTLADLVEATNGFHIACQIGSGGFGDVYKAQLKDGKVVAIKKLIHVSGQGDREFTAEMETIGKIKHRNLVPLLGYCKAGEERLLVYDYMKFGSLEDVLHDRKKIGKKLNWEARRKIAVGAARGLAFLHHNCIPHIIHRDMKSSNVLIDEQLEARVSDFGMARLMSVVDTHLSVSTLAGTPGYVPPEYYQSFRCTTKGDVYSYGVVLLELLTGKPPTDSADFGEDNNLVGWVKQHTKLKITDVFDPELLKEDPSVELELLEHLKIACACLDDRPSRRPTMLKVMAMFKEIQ
# MEASUREMENT_NOTES: thermal shift delta Tm vs DMSO control; higher = stronger stabilization (binding)
# EXPERIMENTAL_SETUP: 12.5 µM; protein concentration 2 µM
Structures can show the parent of a compound that is named as a salt.
READOUT_LABEL: thermal shift delta Tm (°C)
Report the value in °C with no unit label.

### Prompt So what does the record say about thermal shift delta Tm for COc1cc2c3cc1Oc1c(OC)c(OC)cc4c1[C@@H](Cc1ccc(O)c(c1)Oc1ccc(cc1)C[C@@H]3N(C)CC2)N(C)CC4 [Berbamine (dihydrochloride)] ?
### Response 0.22

---
### Prompt So what does the record say about thermal shift delta Tm for Cc1cc(Nc2cc(CN3CCOCC3)c3nc(C)c(Cc4ccc(Cl)cc4F)n3n2)n[nH]1 ?
### Response 1.05

### Prompt Now consider COc1cc2c(N3CCN(C(=O)Nc4ccc(OC(C)C)cc4)CC3)ncnc2cc1OCCCN1CCCCC1 [Tandutinib (MLN518)] .
### Response 0.86

### Prompt Now consider COc1cc(N2CCC(N(C)C)CC2)ccc1Nc1ncc(Cl)c(Nc2ccccc2P(C)(C)=O)n1 .
### Response 3.85

### Prompt Now consider COc1cc(Nc2ncc(F)c(Nc3ccc4c(n3)NC(=O)C(C)(C)O4)n2)cc(OC)c1OC .
### Response 7.74

### Prompt Now consider C=CC(=O)Nc1ccc(CN2C(=O)N(c3cc(OC)cc(OC)c3)Cc3cnc(Nc4ccc(N5CCN(C)CC5)cc4)nc32)cc1 .
### Response 0.08

### Prompt Now consider CN1CCN(C2CCN(C(=O)Nc3cc(Oc4ccc(NC(=O)C5(C(=O)Nc6ccc(F)cc6)CC5)c(F)c4)ccn3)CC2)CC1 [Golvatinib (E7050)] .
### Response 0.09
